Test: NCI Yeast Anticancer Drug Screen. Data for the mlh1 rad18 strain (AID 175)
Settings: S. cerevisiae mlh1 rad18 strain growth inhibition; at 50.0 µM; stronger effect = higher value
Protocol: Growth inhibition of yeast strains with defined genetic alterations is measured as a screen for potential anti-cancer activity. Selected strains with alterations in DNA damage repair or cell cycle control were exposed to compounds and growth inhibition was measured relative to vehicle treated controls. The strain used in this assay is mlh1 rad18
Compounds without any hit were thinned out: in the full panel of roughly 79,000, 15% have a hit. The source made the active and inactive calls. No stated cut-off is given here; in the data, active means growth inhibition above about 70%; inactive means the rest.
Would you kindly list growth inhibition for each of these molecules?

Consider the worked cases shown below.
O=c1ccn(C2OC(CF)C(O)C2O)c(=O)[nH]1 (configuration not stated)
-9.9% (inactive)
O=C1c2ccccc2N2Oc3ccccc3C12c1ccccc1 (configuration not stated)
18.8% (inactive)
O=C(Nc1ccc(Br)cc1)OCC1CC2C=CC1C2 (configuration not stated)
47.4% (inactive)

Each molecule below has a recorded value; state its growth inhibition.
1. CC1=C2CC/C(C)=C/CCC3(C)OC3CC/C(C)=C/C2OC1=O (configuration not stated)
2. COc1cc(OC)c(/C=C2\N=C(C)N(Nc3nnc(NN4C(=O)/C(=C/c5c(OC)cc(OC)cc5OC)N=C4C)c4ccccc34)C2=O)c(OC)c1
3. Clc1ccc(-c2onc3ccc(Br)cc23)cc1
4. CC(=O)Nc1cc(Br)cc2c1-c1ccc(Br)cc1C2

1: -20.1% (inactive); 2: 8.15% (inactive); 3: 8.5% (inactive); 4: 23.4% (inactive)

I would be grateful if you could provide growth inhibition for each of the following entries.
1. Cc1ccc(NC(=O)COc2cc(Cl)c(Cl)cc2Cl)c([N+](=O)[O-])c1
2. O=c1ccc(-c2ccccc2)n[nH]1
3. CCc1cc(-c2cc(CC)on2)no1
4. CC(C)NC(N)=O

1. -0.4% (inactive)
2. -23.9% (inactive)
3. 1.4% (inactive)
4. 16.4% (inactive)

Fill in reported growth inhibition for this entry: O=[N+]([O-])c1cc(Cl)cc2cc(Br)cnc12
4.4% (inactive)

----------
Field: growth inhibition. Provide a value for each of the compounds that follow.
Assay: NCI Yeast Anticancer Drug Screen. Data for the rad50 strain (AID 155);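 further: 0% = growth of vehicle-only cultures of the same strain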
Settings: S. cerevisiae rad50 strain growth inhibition; at 50.0 µM; stronger effect = higher value
The panel holds about 79,000 compounds, 15% with a hit somewhere; the sample as a whole holds those more often.
Give bare numbers, in %.

// below: answered compounds
C1=C(N2CCOCC2)/C(=C2\SC(=Nc3ccccc3)C(=Nc3ccccc3)N2c2ccccc2)CC1
-5.8
C=CCN(CC=C)CCNc1cc(C)nc(Nc2nc3ccc(Cl)cc3[nH]2)n1
90.6
N#C/C(=C1\SC(N=Nc2ccc(Cl)cc2)C(=O)N1c1ccccc1)c1nc2ccccc2[nH]1 (stereo not given)
6.6
Cc1ccccc1NC(=O)CSc1nnc(-c2ccc(N=Cc3ccc(Cl)cc3)cc2)o1
-13.6
CC(=O)Nc1ccc(C2C(C(=O)Nc3ccccc3)=C(C)NC(C)=C2C(=O)Nc2ccccc2)cc1
17.1

Lab note: each compound below needs its growth inhibition filled in.
1. O=[N+]([O-])c1cc(Cl)cc2cc(Br)cnc12
2. CCOC(=O)c1ccc(N=Cc2ccc(N(CCC#N)S(=O)(=O)c3ccccc3)cc2C)cc1
3. Cn1c2ccccc2c(=O)c2c(O)cc3c(c21)CC(C1(C)CO1)O3 (stereo not given)
4. CCOC(=O)c1cnc2nc[nH]n2c1=O
5. COC1(OC)CCC2=C(C)C(=O)CCC2(CO)C1 (stereo not given)

1. 4.2
2. -3.9
3. 86.2
4. -52.8
5. 15.7

----------
Assay: NCI Yeast Anticancer Drug Screen. Data for the bub3 strain (AID 167)
Details: S. cerevisiae bub3 mutant strain, at 50.0 µM
About 79,000 compounds went through this panel and 15% of them were active in at least one assay; those are over-represented in the sample as a whole. Active and inactive are the calls of the source. Rule as the data show it: active = growth inhibition above about 70%; inactive = the rest. Where a SMILES comes first, the peptide text is derived from it.
Thanks in advance; please answer with one of these: 1.0 for active, 0.0 for inactive

COc1cc(C(=O)O)cc(OC(C)=O)c1OC
0.0
O=C(O)C(Br)C(Br)C(=O)Nc1cccc(C(F)(F)F)c1 (stereo not drawn)
0.0
C=CCSc1nc2ccc(NC(C)=O)cc2s1
0.0
CN1CCN(C(=O)/C(=C/c2ccccc2)NC(=O)c2ccccc2)CC1
0.0
O=NN(CCCl)C(=O)N[C@H]1CCC[C@@H](O)C1
0.0

Short answer needed: outcome of this test for CCOc1c/c(=N\N=C(/C)c2ccc(Cl)cc2)n(C)c(=O)n1C ?
0.0

For CCOC(=O)CNC(=O)C(Cc1ccccc1)NC(=O)C(N)CC(=O)O (stereo not drawn) (H-Asp-Phe-Gly-OEt; configuration not given here) , which call appears in the assay record?
0.0

How was CC(=O)Nc1c(Nc2ccccc2)[nH]c(C)nc1=S classified in this test?
0.0

Hi, sorry to bother you, what did the test record for CCC(C)CNCCO (stereo not drawn) ?
0.0

How was CCc1c(-c2ccccc2)[nH]c(=S)c(C#N)c1C classified in this test?
0.0

Recorded test outcome, item O=C1c2ccccc2-c2nc(-c3ccccc3)cc3c2c1nc1ccccc13
1.0

Outcome logged for COc1ccc(/C=N/O)cc1OC in this assay:
0.0

----------
I'd be grateful if you could share measured growth inhibition for these entries.
Assay: NCI Yeast Anticancer Drug Screen. Data for the bub3 strain (AID 167)
Settings: S. cerevisiae bub3 mutant strain, at 50.0 µM, stronger effect = higher value
About 79,000 compounds went through this panel and 15% of them were active in at least one assay; those are over-represented in the sample as a whole.
One number for each entry, in %.

Past entries and their recorded results:
CCC1(C(=O)O)OC1(C)c1cccs1 (configuration not stated)
10.5
O=C1/C(=N\N(C(=O)c2ccccc2)c2ccccc2)c2cccc3cccc1c23
24.9
O=C(OCc1ccccc1)c1ccccc1O
22.8
O=C1OC(c2ccccc2)(c2ccccc2)CC1c1ccccc1 (configuration not stated)
-4.25
O=C(CCC(=O)Nc1cc(Cl)ccc1Cl)CC(=O)c1ccc(Cl)cc1
-1.65
COc1cc2c(cc1OC)C(c1ccccc1)ON(C)CC2 (configuration not stated)
1.45
CC1=NN(C(=O)CC(=O)Nc2cccc(Cl)c2)C(=O)C1N=Nc1ccc(S(=O)(=O)c2ccc(N=NC3C(=O)N(C(=O)CC(=O)Nc4cccc(Cl)c4)N=C3C)cc2)cc1 (configuration not stated)
-25.4
CCOCCOC(=O)CCC1CCCCC1
19

# batch: return growth inhibition for each of the 2 compounds below
1. Cc1cccc(-c2c3ccccc3cc3ccccc23)c1
2. NC(=O)c1[nH]cnc1N

1: 2.35; 2: 23.9

I have 3 compounds here; please give me growth inhibition for each one.
1. CCCC1(CCC)NC(=O)N(CC(N)=O)C1=O
2. CC(Cc1cccc2ccccc12)(C(=O)O)C(=O)O
3. NNC(=O)c1c[nH]c2ccccc2c1=O

-9.1
-7.5
5.1

Please give growth inhibition, item by item, for the list that follows.
1. CC(C)OC(=O)NN(C)c1ccccc1
2. Cc1ccc(C(=O)c2ccccc2)cc1
3. O=C1C=C(Nc2ccc(Br)cc2)c2ccccc2C1=O
4. S=C1NCCN1c1ccc(Cl)cc1
5. CC1CCC(C(C)(C)O)CC1O (configuration not stated)

1: 3.9; 2: -0.6; 3: -1.45; 4: -30.5; 5: -16.8

Please give growth inhibition for each item listed below.
1. CC(=O)NCC1(c2ccccc2)CCN(CC2COc3ccccc3O2)CC1 (configuration not stated)
2. Cc1nnc(CC#N)n1NC(=O)CC#N
3. CC(=O)Nc1ccc(S(=O)(=O)NC(=O)NC(C)C)cc1
4. O=C(/C=N\O)c1ccncc1

17.1
8.65
3
-8.65

----------
Assay: NCI Yeast Anticancer Drug Screen. Data for the sgs1 mgt1 strain (AID 161);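 further: 0% = growth of cultures given vehicle only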
Conditions: S. cerevisiae sgs1 mgt1 strain, at 50.0 µM
The panel holds about 79,000 compounds, 15% with a hit somewhere; the sample as a whole holds those more often. Activity calls are given as the source filed them. Cut-off read from the data, not from the text of the source: active = growth inhibition above about 70%; inactive = the rest.
In this exercise, the only acceptable responses are true = active, false = inactive

CCC(=O)Oc1cccc(C)c1
false
Cc1nn(C(=O)Cc2ccccc2)c2c1C(c1ccc(O)cc1O)SC(N)=N2 (configuration not stated)
false

Dear colleague, could you share the recorded outcome for C=CCC1(CO)CCCCC1O (configuration not stated) when you have a moment?
false

What outcome does the record of this test show for N/C(=N\O)c1c(Br)n(C2OC(CO)C(O)C2O)c2ncnc(N)c12 (configuration not stated) ?
false

Give the logged outcome of this assay for the following molecule: c1ccc(C2=C(c3ccccc3)c3ccccc3C2)cc1
false

What classification did O=C1CN(c2ccc(Cl)cc2)C(=O)CN1CCN1CC(=O)N(c2ccc(Cl)cc2)CC1=O end up with in this test?
false

// return assay outcome for CCCCCCCC/C=C\CCCCCCCC(=O)OCCN(CCOC(=O)CCCCCCC/C=C/CCCCCCCC)C(=O)COC(=O)CCCCCCC/C=C\CCCCCCCC
false

Hey, what did the test say about CCCCCCC(N)(CCCCCC)C(=O)Nn1c(C)ccc1C ?
false

Could you check what this test reported for CC(=O)c1cccc(NC(=O)N2CCCCC2C)c1 (configuration not stated) ?
false

Any idea what this test logged for CCOC(=O)Cc1csc(NC(NC(=O)OCC)(C(=O)OCC)C(F)(F)F)n1 (configuration not stated) ?
false
